B1: CCDC6 (parent)
chain: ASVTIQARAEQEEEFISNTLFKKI

Variants of: B1
Test: protein stability index of a GFP-peptide fusion (GPS, HEK-293T) (PSI 1-6); higher = more stable;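 note: lentivirally expressed fusions sorted by FACS into six bins by GFP to DsRed ratio, PSI derived from sequencing read proportions per bin multiplied by bin number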
Conditions: c terminus: a fixed tail appended
Property Label: protein stability index
One number for each entry.

# Mutation Label, Property Label, Numeric Readout
rows = [
    ("A1T", "protein stability index", 3.85),
    ("S17L", "protein stability index", 3.35),
    ("K22A", "protein stability index", 2.87),
    ("N18D", "protein stability index", 4.34),
    ("A1S", "protein stability index", 3.75),
    ("I24Q", "protein stability index", 4.36),
    ("V3G", "protein stability index", 4.44),
    ("E13L", "protein stability index", 2.38),
    ("S2T", "protein stability index", 3.33),
    ("L20C", "protein stability index", 3.9),
]

Pending variant:
Check the records and state protein stability index for I5M
4.29

Data provenance: the supplement of paper PMC10567573
